Data provenance: PubChem BioAssay (NCI)

Tested on: K-562 leukemia
assay-procedure: NCI tumour cell line growth inhibition, 48 h
reported-metric: TGI

Observe how each entry below is paired with its result.
{"columns": ["compound", "TGI"],
 "data": [
  ["CN(c1nc(=[N+](C)C)ss1)C1CCCCC1", "> 100 µM"],
  ["Cc1cccc(-n2c(C)nc3ccc(NC(=S)Nc4ccccc4)cc3c2=O)c1", "> 100 µM"],
  ["Cn1ccnc1C(=O)/C=C/c1ccc(C(=O)Nc2ccc(F)cc2)cc1", "> 50 µM"]
]}

Looking up C/C=C/C1(C)/C(=N\O)C(C)(CCC)C(=O)N1O (configuration not stated) , I see its TGI listed as > 100 µM

Looking up CCOc1c(OC)cc(C2c3cc4c(c(OCC)c3CC3COC(=O)C32)OCO4)cc1OC (configuration not stated) , I see its TGI listed as 19.4 µM

Looking up CN(C)CCNC(=O)c1cccc2c(NC(CCCN=C(N)N)C(=O)O)c3ccccc3[n+](C)c12 (configuration not stated) , I see its TGI listed as > 100 µM

---

Test system: A549 NSCLC
assay-procedure: NCI tumour cell line growth inhibition, 48 h
reported-metric: TGI (µM)
Respond with the bare value in µM.

Observe how each entry below is paired with its result.
{"columns": ["compound", "TGI, µM"],
 "data": [
  ["CCn1cc(C2NC(=O)c3ccccc3N2)c2cccc(C)c21 (stereo unspecified)", 14.7],
  ["OCCOCCO/N=C1\\C(c2c(O)[nH]c3ccccc23)=Nc2ccccc21", 17.1],
  ["CC(C)NC(=O)OCc1c(COC(=O)NC(C)C)n(C)c2c1ccc1ccsc12", 47.4],
  ["N#C/C(=C\\c1ccc2c(c1)OCO2)n1nnc2ccccc21", 48.1]
]}

# next compound below
Tested on A549 NSCLC: CC(C)c1ccc(COCc2cc(CN3CCCC3)c(O)c3ncccc23)cc1 . Observed TGI: 8.31

---

# TGI per entry
Tested on: ACHN renal
assay-procedure: NCI tumour cell line growth inhibition, 48 h

Observe how each entry below is paired with its result.
{"columns": ["compound", "observed"],
 "data": [
  ["OC1CC1Sc1ccccc1 (centres undefined)", "> 100 µM"],
  ["c1ccc(CNc2ccc3[nH]c4cnccc4c3c2)cc1", "29 µM"],
  ["COC(=O)CCC1(C)C2CCC1/C(=N/O)C2 (centres undefined)", "> 100 µM"],
  ["Cc1ccc(C2CC(c3cccc(Nc4ccncc4)c3)=NN2c2cc(Cl)cc(Cl)c2)cc1 (centres undefined)", "3 µM"],
  ["CC(CCc1ccccc1)NCC(O)n1c(/N=N/N(C)C)nc2c1c(=O)n(C)c(=O)n2C (centres undefined)", "> 100 µM"]
]}

Looking up CCOC(=O)Oc1ccc(C(CNC(C)C)OC(=O)OCC)cc1OC(=O)OCC (centres undefined) , I see its TGI listed as > 100 µM

Looking up C/C(=N/NC(=O)c1ccccc1O)c1ccc(/C(C)=N\NC(=O)c2ccccc2O)c2nc3cc(C)c(C)cc3nc12 , I see its TGI listed as > 100 µM

Looking up CC(C)[C@@H](C)CC[C@@H](C)C1CC=C2[C@@H]3CCC4C[C@@H](O[Si](C)(C)C(C)(C)C)CC[C@]4(C)C3CC[C@@]21C (some centres undefined) , I see its TGI listed as > 100 µM

Looking up C=C1C(=O)O[C@H]2[C@H]1CC/C(COC(=O)NCc1ccc(Cn3c(=O)sn(CCCC)c3=O)cc1)=C\CC[C@@]1(C)O[C@@H]21 , I see its TGI listed as 3.08 µM

---

# TGI per entry
Test system: BT-549 breast
assay-procedure: NCI tumour cell line growth inhibition, 48 h
Respond with the bare value in µM.

{"columns": ["cpd-smiles", "TGI / µM"],
 "data": [
  ["COc1ccc2nc3n[nH]c(N)c3nc2c1", 62.9],
  ["COc1ccc2cnc(N)c(C#Cc3cc(C(=O)Nc4ccc(CN5CCN(C)CC5)c(C(F)(F)F)c4)cnc3C)c2c1", 16.4]
]}

# next compound below
Looking up Cc1ccc(Cl)cc1Nc1nc(C(F)(F)F)ccc1C(N)=O , I see its TGI listed as 28.6

---

System: SR leukemia
assay-procedure: NCI tumour cell line growth inhibition, 48 h
# TGI per entry

Observe how each entry below is paired with its result.
{"columns": ["molecule", "TGI"],
 "data": [
  ["CC(C)(O)C1CC[C@]2(C)CC[C@]3(C)[C@H](CC[C@@H]4[C@@]5(C)CC[C@H](O)C(C)(C)[C@@H]5CC[C@]43C)[C@@H]12 (stereo not given in full)", "> 100 µM"],
  ["CC(C)NC(=O)OCc1c(COC(=O)NC(C)C)n(C)c2c1ccc1ccsc12", "8.45 µM"],
  ["CC(=O)NC(CCCN(Cc1ccccc1)C(=O)NCCCl)C(=O)NCc1ccccc1 (stereo not given)", "> 100 µM"],
  ["COc1ccccc1C=NC12CC3CC(CC(C3)C1)C2", "> 100 µM"]
]}

# next molecule below
Looking up N#C/C(=C/c1cccc2ccccc12)C(=O)c1ccccc1 , I see its TGI listed as 88.3 µM

---

Test system: SK-OV-3 ovarian
assay-procedure: NCI tumour cell line growth inhibition, 48 h
Where a SMILES comes first, the peptide text is derived from it. [ ]: non-standard residue; d: D form. The star is where a group is joined. Chg = N[CH](C(=O)O)C1CCCCC1; Cbz = O=C(OCc1ccccc1)*; OBn = c1ccc(CO*)cc1
# TGI per entry

Observe how each entry below is paired with its result.
{"columns": ["compound", "reported-metric", "observed"],
 "data": [
  ["C=C[C@]1(C)CC(O)C2C(=C)C(=O)OC2[C@H]1C(=C)C=O (stereo not given in full)", "TGI", "66.2 µM"],
  ["COC(=O)C(NC(=O)C(CC(=O)OCc1ccccc1)NC(=O)OCc1ccccc1)C1CCCCC1 (stereo not given) (Cbz-Asp(OBn)-[Chg]-OMe; configuration not given here)", "TGI", "> 100 µM"],
  ["O=S(=O)(Nc1cccc(Cl)c1)c1ccc(-c2cnc(C3CC3)o2)cc1", "TGI", "24.9 µM"],
  ["COC(=O)C1=C(C(=O)OC)C2(C)OC1C(=O)C21CC1 (stereo not given)", "TGI", "> 100 µM"],
  ["COc1cc(/C=C\\c2cc(/C=C\\c3ccc(O)c(OC)c3)n(C(=O)COc3ccc(Cl)cc3Cl)n2)ccc1O", "TGI", "3.43 µM"],
  ["CC(C)(O)C1CC[C@]2(C)CC[C@]3(C)[C@H](CC[C@@H]4[C@@]5(C)CC[C@H](O)C(C)(C)[C@@H]5CC[C@]43C)[C@@H]12 (stereo not given in full)", "TGI", "49.3 µM"],
  ["C[C@]12CC[C@H](OC3CCCCO3)CC1=CC[C@@H]1C2CC[C@]2(C)/C(=N/OCCC#N)CCC12 (stereo not given in full)", "TGI", "> 100 µM"],
  ["C/C=C/C1(C)/C(=N\\O)C(C)(CCC)C(=O)N1O (stereo not given)", "TGI", "> 100 µM"],
  ["CCOc1c(OC)cc(C2c3cc4c(c(OCC)c3CC3COC(=O)C32)OCO4)cc1OC (stereo not given)", "TGI", "> 100 µM"],
  ["c1ccc(-c2ccc(-c3ccc(C4=NCCN4)cc3)o2)cc1", "TGI", "11.5 µM"]
]}

Tested on SK-OV-3 ovarian: c1ccc2[nH]c(C3CCCCO3)nc2c1 (stereo not given) . Observed TGI: > 100 µM

Tested on SK-OV-3 ovarian: COc1ccccc1C=NC12CC3CC(CC(C3)C1)C2 . Observed TGI: > 100 µM

Tested on SK-OV-3 ovarian: O=C1CNN=C(CSc2nc3ccc(I)cc3c(=O)n2Cc2ccccc2)N1 . Observed TGI: > 100 µM

Tested on SK-OV-3 ovarian: CC(CCc1ccccc1)NCC(O)n1c(/N=N/N(C)C)nc2c1c(=O)n(C)c(=O)n2C (stereo not given) . Observed TGI: > 100 µM

Tested on SK-OV-3 ovarian: C[C@@H]1OC(=O)C[C@H]2CC(=O)N(CCC3CN(C(=O)c4ccccc4)c4ccccc43)C[C@@H]21 (stereo not given in full) . Observed TGI: > 100 µM

Tested on SK-OV-3 ovarian: CCOC(=O)C(=Cc1ccc(-c2ccccc2)cc1)C(=O)OCC . Observed TGI: 24.8 µM

Tested on SK-OV-3 ovarian: COc1ccccc1NC(=O)c1ccc(NC2=C(Cl)C(=O)N(Cc3ccccc3)C2=O)cc1 . Observed TGI: > 100 µM

Tested on SK-OV-3 ovarian: O=C1C2=Cc3ccccc3OC2(O)Oc2cc(O)cc(O)c21 (stereo not given) . Observed TGI: > 100 µM

Tested on SK-OV-3 ovarian: COc1ccc(NC(=O)CC(=O)n2nc(-c3ccccc3)c(N=Nc3ccccc3C(=O)O)c2-c2ccccc2)cc1 . Observed TGI: 31.8 µM
